target: purified human placenta 20S proteasome (Homo sapiens)
Task for the reader: assign each of the following compounds its reported pIC50.
Scale explanation: pIC50 corresponds to minus log10 of a concentration expressed in moles per litre.

input: Give pIC50 (purified human placenta 20S proteasome (Homo sapiens)) of the following compound: COc1ccc(CN[C@@H](C(=O)N[C@H](C(=O)NCc2ccc(OC)cc2O)C(C)C)[C@@H](O)[C@H](Cc2ccccc2)NC(=O)[C@@H](NC(=O)OCc2ccccc2)C(C)(C)C)cc1 [Example 1]
output: 6.05

input: Next record, please: COc1ccc(CNC(C(=O)NC(C(=O)NCc2ccc(OC)cc2O)C(C)C)C(O)C(Cc2ccccc2)NC(=O)C(NC(=O)OC(C)(C)C)C(C)(C)C)cc1 (stereo not drawn) [Example 3]
output: 4.59

input: One more compound: COc1ccc(CNC(C(=O)NC(C(=O)NCc2ccc(OC)cc2O)C(C)C)C(O)C(Cc2ccccc2)NC(=O)C(NC(=O)OCc2ccncc2)C(C)(C)C)cc1 (stereo not drawn) [Example 6]
output: 5.66
